meta.source: patent US4129565A

- protocolText: in vivo
- conditions: mouse, iv
Structures can show the parent of a compound that is named as a salt.
Quick rule for you: LD50 under 80 mg/kg gets MET, anything else gets NOT MET.

Is it true that LD50 reported for CCC(C)NCC(O)COc1cn(C)c(=O)c2ccccc12 (centres unmarked) [Example 3, hydrochloride] is less than 80 mg/kg?
NOT MET

Same lookup for CCCCNCC(O)COc1cn(C)c(=O)c2ccccc12 (centres unmarked) , please.
NOT MET

Next: CCCCCCNCC(O)COc1cn(C)c(=O)c2ccccc12 (centres unmarked)
MET

Consider next the molecule CC[N+](C)(CC)CC(O)COc1cn(C)c(=O)c2ccccc12 (centres unmarked) in the same way.
MET
